We begin with a simple list: items and their reported Biodistribution liver.
System: LNCaP tumor-bearing CB-17 SCID mice
reported conditions: male, mouse, in vivo, 1 h
Could you give me the number in % ID/g? Just the number is fine.

compound	value units	numeric readout
CC(C)(C)[Si](F)(c1ccc(C(=O)NC[C@@H](NC(=O)CC[C@H](C(=O)O)N2CCN(CC(=O)O)CCN(CC(=O)O)CCN(CC(=O)O)CC2)C(=O)N[C@H](CCCCNC(=O)CCC(=O)NCCC[C@@H](NC(=O)CC[C@H](NC(=O)N[C@@H](CCC(=O)O)C(=O)O)C(=O)O)C(=O)O)C(=O)O)cc1)C(C)(C)C [rhPSMA7.1, [^19F][^natGa]D-Dap-R-DOTAGA-rhPSMA7, metal not drawn]	% ID/g	0.75
CC(C)(C)[Si](F)(c1ccc(C(=O)NC[C@H](NC(=O)CC[C@@H](C(=O)O)N2CCN(CC(=O)O)CCN(CC(=O)O)CCN(CC(=O)O)CC2)C(=O)N[C@H](CCCCNC(=O)CCC(=O)NCCC[C@@H](NC(=O)CC[C@H](NC(=O)N[C@@H](CCC(=O)O)C(=O)O)C(=O)O)C(=O)O)C(=O)O)cc1)C(C)(C)C [rhPSMA7.4, [^19F][^natGa]L-Dap-S-DOTAGA-rhPSMA7, metal not drawn]	% ID/g	0.69
CC(C)(C)[Si](F)(c1ccc(C(=O)NC[C@H](NC(=O)CC[C@H](C(=O)O)N2CCN(CC(=O)O)CCN(CC(=O)O)CCN(CC(=O)O)CC2)C(=O)N[C@H](CCCCNC(=O)CCC(=O)NCCC[C@@H](NC(=O)CC[C@H](NC(=O)N[C@@H](CCC(=O)O)C(=O)O)C(=O)O)C(=O)O)C(=O)O)cc1)C(C)(C)C [rhPSMA7.2, [^19F][^natGa]L-Dap-R-DOTAGA-rhPSMA7, metal not drawn]	% ID/g	0.35

Alright, here's another compound for you.
Output Biodistribution liver of CC(C)(C)[Si](F)(c1ccc(C(=O)NC[C@@H](NC(=O)CC[C@@H](C(=O)O)N2CCN(CC(=O)O)CCN(CC(=O)O)CCN(CC(=O)O)CC2)C(=O)N[C@H](CCCCNC(=O)CCC(=O)NCCC[C@@H](NC(=O)CC[C@H](NC(=O)N[C@@H](CCC(=O)O)C(=O)O)C(=O)O)C(=O)O)C(=O)O)cc1)C(C)(C)C [rhPSMA7.3, [^19F][^natGa]D-Dap-S-DOTAGA-rhPSMA7, metal not drawn]
0.69

From: patent US12377176B2
